Where these numbers come from: ChEMBL document CHEMBL1201862

Tested on: TK-10
Assay: NCI tumour cell line growth inhibition, 48 h
Calls of active or inactive are those of the source. Rule as the data show it: active = GI50 up to about 1.1 µM and inactive = higher.

compound: O=C1C=CC[C@H]2O[C@@H](COC(=O)Cc3ccccc3)C[C@H]2O1
GI50: 25.9 µM (inactive)
--
compound: Cc1ccccc1NC(=S)N/N=C1\C(=O)Nc2ccccc21
GI50: > 100 µM (inactive)
--
compound: NC(Cc1ccc(B(O)O)cc1)C(=O)NC(CO)CO (stereo unspecified)
GI50: > 100 µM (inactive)
--
compound: O=C1c2[nH]c3ccccc3c2CCN2CCCCC12 (stereo unspecified)
GI50: 27 µM (inactive)
--
compound: Nc1nc(N)c2nc(CNc3ccc(C(=O)O)cc3)[nH]c2n1
GI50: > 100 µM (inactive)
--
compound: NNC(=O)CSc1nnc(CCCCCCCCc2nnc(SCC(=O)NN)o2)o1
GI50: > 100 µM (inactive)
